This collection of values is drawn from ChEMBL document CHEMBL4130350.

- TEST_SUMMARY: Elimination half-life in mouse liver microsomes at 2 uM up to 60 mins by LC-MS/MS analysis
- Type: ADME, microsome
- TEST_PARAMETERS: read-out: beta t1/2
RECORDED_ENDPOINT: half-life at 2 µM (min)
Answer format: numeric, min implied, no suffix.

// lookup half-life at 2 µM for N#Cc1cccnc1N1CCN(C(=O)c2cc(Cc3n[nH]c(=O)c4ccccc34)cc(F)c2F)CC1 3

====

- TEST_SUMMARY: Cytotoxicity against BRCA2 deficient Chinese hamster VC8 cells after 3 days by CCK8 or SRB assay
- Type: functional, cell-based
- TEST_PARAMETERS: Cricetulus griseus, V-C8, 72 h
RECORDED_ENDPOINT: IC50 (µM)
Answer format: numeric, µM implied, no suffix.

// lookup IC50 for Cn1ncnc1[C@H]1c2n[nH]c(=O)c3cc(F)cc(c23)N[C@@H]1c1ccc(F)cc1 [TALAZOPARIB] 0.0042

// lookup IC50 for O=C(c1cc(Cc2n[nH]c(=O)c3ccccc23)cc(F)c1F)N1CCN(c2cccc(Cl)c2)CC1 1.6

// lookup IC50 for O=C(c1cc(Cc2n[nH]c(=O)c3ccccc23)cc(F)c1F)N1CCN(c2ccccc2O)CC1 0.0317
